System: HepG2
Assay: cell viability relative to DMSO; higher = less toxic
Conditions: 72 h; 10000 nM
measured_attribute: cell viability (%)
// units = %; emit number, no label

Worked set:
- molecule: "CCCn1cnc2c1c(=O)n(CCCCC(C)=O)c(=O)n2C [propentofylline]"
  cell viability (%): 104
- molecule: "NCCc1c[nH]c2ccc(O)cc12 [serotonin]"
  cell viability (%): 107

Data request: Write down cell viability measured for item Cc1nc(C)c(-c2ccc(C3CCC(CC(=O)O)CC3)cc2)nc1C(N)=O (stereo not drawn) [AZD7687]
Data returned: 92.1

Data request: Read off the recorded cell viability for O=C(O[C@H]1CN2CCC1CC2)N(Cc1cc(F)c(F)c(F)c1)c1cccc(F)c1 [tarafenacin]
Data returned: 99.3

Data request: Identify cell viability associated with the molecule COc1cc(C(=O)NCc2ccc(OCCN(C)C)cc2)cc(OC)c1OC [trimethobenzamide]
Data returned: 107

Data request: Consider the molecule CC(=O)N[C@@H](C=O)[C@@H](O)[C@H](O)[C@H](O)CO [N-acetyl-D-glucosamine] . State its measured cell viability.
Data returned: 87.3

Data request: Give the measured cell viability for Oc1c(Cl)cc(Cl)c2cccnc12 [chloroxine]
Data returned: 76

Data request: For the molecule CCCCN1CCC(CNC(=O)c2c3n(c4ccccc24)CCCO3)CC1 [piboserod] , give its measured cell viability value.
Data returned: 95.5

Data request: Look up and report measured cell viability for this entry: CCOC(=O)c1cnc2c(cnn2CC)c1NN=C(C)C [etazolate]
Data returned: 88.4

Data request: Name the recorded cell viability of the molecule listed here: CC(C)c1nnc(-c2ccc(-c3ccccc3)nc2)n1-c1cccc2nonc12 [ASP-2535]
Data returned: 88.7

Data request: For `CC[C@@H](C)N(C)C(=O)c1cc2ccccc2c(-c2ccccc2Cl)n1` , write its cell viability.
Data returned: 107

Data request: // fetch cell viability given entry Cc1ncc([N+](=O)[O-])n1CC(O)CCl (stereo not drawn) [ornidazole]
Data returned: 99.7

Data request: Find the measured cell viability of N[C@@H](Cn1ccc(=O)n(Cc2ccccc2C(=O)O)c1=O)C(=O)O [UBP-302] and report it.
Data returned: 104

Data request: # return recorded cell viability for input CC(C)OC(=O)OCOP(=O)(CO[C@H](C)Cn1cnc2c(N)ncnc21)OCOC(=O)OC(C)C [tenofovir-disoproxil]
Data returned: 44.6

Data request: Give reported cell viability value for O=C(C[S+]([O-])Cc1ccco1)NC/C=C\COc1cc(CN2CCCCC2)ccn1 (stereo not drawn) [lafutidine]
Data returned: 104
